test system: gene editing with Cas9; assay: Screen of 322 new SSAP proteins, gene editing activity with Cas9 (Table 5); type: cell-based; settings: normalized
Reported Cas9 with SSAP activity (normalized) is given for each of the following molecules.
Give only the figure.

{"MOLECULE": "SSAP_279: SEQ ID NO: 448; Dorea sp. 42_8 (protein, listed as Dorea sp.) AVNNSLAKRDQSMKLSVYLQNDAVKKQINQVVGGKNGTRFISSIVSAVQSTPALQECTSPSIVNAALLGEALNLSPSPQLGQFYMVPFDNRKKGCKEAQFQLGYKGYIQLAERSGYYKKLNVLAIKEGELIRYDPLDEEIEVELIDDDVIREETPAMGYYAMFEYENGFCIQQKWRSEDFGTFRAGQNSGKGSLEVFFFLVQRF", "MEASUREMENT_KIND": "Cas9 with SSAP activity (normalized)", "READOUT_NUMBER": "−3.398"}

Now consider a different molecule.
Give reported Cas9 with SSAP activity (normalized) value for SSAP_103: SEQ ID NO: 272; Zymobacter palmae (protein, listed as Zymobacter palmae) TNTVQQQAPQQDQLAQQLQQASGNTPQKKPMPSTIQGMLKDDRFKTQIARALPKHVTPERIMRIALTEINKTPKLKECDPIGLFGSIVQSAQLGLELGGALGHAYLVPYGKQAQFIIGYRGMIDLARRSGQMVSLQAHTVHENDEFNFEYGLNENLRHVPARGERGPMIAVYAVAKLVGGGHQIEVMWKEDVDAVRKSSKAGGSGPWRDHYEEMAKKTAIRRLFKYLPVSVEMQRAVSLDEQAEEGVQDNNVFDGDYTVAEH
−0.190

Attribution: patent US20250034594A1
